Molecular target: T1, purified human CD117 ectodomain (R&D Systems #332-SR) (human, UniProt P10721 26-524)
T1 construct: extracellular domain; Bought protein; also called c-kit; purified recombinant human CD117 ectodomain
T1 sequence (P10721 26-524): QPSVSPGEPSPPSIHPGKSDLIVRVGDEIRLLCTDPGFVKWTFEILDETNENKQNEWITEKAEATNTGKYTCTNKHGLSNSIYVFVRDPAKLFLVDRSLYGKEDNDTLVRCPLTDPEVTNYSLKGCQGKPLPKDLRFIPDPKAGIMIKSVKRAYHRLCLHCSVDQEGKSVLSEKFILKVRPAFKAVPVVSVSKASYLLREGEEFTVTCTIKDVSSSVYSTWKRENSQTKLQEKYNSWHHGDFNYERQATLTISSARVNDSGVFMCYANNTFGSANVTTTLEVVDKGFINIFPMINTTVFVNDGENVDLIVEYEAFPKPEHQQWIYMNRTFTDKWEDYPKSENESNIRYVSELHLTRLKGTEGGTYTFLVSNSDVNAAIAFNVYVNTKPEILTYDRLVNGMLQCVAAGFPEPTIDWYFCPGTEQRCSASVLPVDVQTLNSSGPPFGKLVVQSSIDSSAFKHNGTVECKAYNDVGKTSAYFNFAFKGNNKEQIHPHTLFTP
Assay: BLI, purified IgG on sensor, soluble ectodomain; apparent monovalent
Below, each entry is listed with its recorded kon.

BINDER	kon, M⁻¹ s⁻¹
HC-3/LC-3 (Ab3) (antibody, IgG1, V domains shown, Purified IgG; also called 003) VH: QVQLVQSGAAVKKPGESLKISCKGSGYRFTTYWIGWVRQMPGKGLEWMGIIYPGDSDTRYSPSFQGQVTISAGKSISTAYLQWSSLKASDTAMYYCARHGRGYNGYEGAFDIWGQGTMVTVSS VL: AIRMTQSPSSLSASVGDRVTITCRASQGIRNDLAWYQQKPGKTPKLLIYDASSLESGVPSRFSGSGSGTDFTLTISSLQPEDFATYYCQQFNSYPLTFGGGTKVEIK	346000
HC-20/LC-20 (Ab20) (antibody, IgG1, V domains shown, From rat immunization/hybridoma; purified IgG in BLI; also called 020) VH: EVQLQQYGAELGKPGTSVRLSCKLSGYKIRNTYIHWVNQRPGKGLEWIGRIDPANGNTIYAEKFKSKVTLTADTSSNTAYMQLSQLKSDDTALYFCAMNYEGYEDYWGQGVMVTVSS VL: DIQMTQSPSFLSASVGDSVTINCKASQNINKYLNWYQQKLGEAPKRLIHKTDSLQTGIPSRFSGSGSGTDYTLTISSLQPEDVATYFCFQYKSGFMFGAGTKLELK	794000
